Numbers sourced from PubChem BioAssay (NCI).

system: KM20L2 colon; assay: NCI tumour cell line growth inhibition, 48 h
Reported TGI is given for each of the following compounds.

Field: example entries. Status: answers known.
[[record]]
compound = "O=C(CCC(=O)Nc1ccc(Cl)c(Cl)c1)CC(=O)c1ccc(Br)cc1"
measured_quantity = "TGI"
result = "> 100 µM"

[[record]]
compound = "Cc1nn[n-]n1.N.N.N.N.N.[Cl-].[Co+3]"
measured_quantity = "TGI"
result = "> 100 µM"

[[record]]
compound = "CCOC(=O)C1=C(Nc2ccc(Cl)cc2Cl)OCC1=O"
measured_quantity = "TGI"
result = "> 100 µM"

[[record]]
compound = "CCCNC(=O)C1C(=O)C(=O)N(CCC)C1=O (centres undefined)"
measured_quantity = "TGI"
result = "> 100 µM"

[[record]]
compound = "Cc1c2ccncc2cc2c1[nH]c1ccccc12"
measured_quantity = "TGI"
result = "22.4 µM"

[[record]]
compound = "CCC1(N=[N+]=[N-])C(=O)c2ccccc2N(C)C1=O (centres undefined)"
measured_quantity = "TGI"
result = "> 100 µM"

[[record]]
compound = "CC1=Nc2c(ccc3c2C(=O)c2ccccc2C3=O)NC(c2cccc3c2CCC3)C1 (centres undefined)"
measured_quantity = "TGI"
result = "> 100 µM"

[[record]]
compound = "CN(Cc1cnc2nc(N)nc(N)c2n1)c1ccc(C(=O)N[C@@H](CCC(=O)O)C(=O)O)cc1"
measured_quantity = "TGI"
result = "> 250 µM"

[[record]]
compound = "NC1=C(NC(=O)Cc2ccccc2F)C(=O)c2ccccc2C1=O"
measured_quantity = "TGI"
result = "> 100 µM"

[[record]]
compound = "COc1ccc(NC(=O)/C(=C/c2ccccc2)C(C)=O)cc1"
measured_quantity = "TGI"
result = "29.2 µM"


The value of TGI measured for the compound O=C(c1nc2ccc([N+](=O)[O-])cc2[nH]c1=O)C(O)c1ccc2c(c1)OCO2 (centres undefined) turned out to be > 100 µM
